TEST TARGET: HLA-DRB1*01:01 (Homo sapiens, UniProt P01903+P01911, A100R/D57E/F55L/F60I/F76Y/I96L/L162R/M171V/P40L/Q125E/R42F/V115G/Y59C)
Construct: EBV transformed homozygous cell lines were used as sources of MHC molecules; endogenous in cells; host or cells: EBV transformed homozygous cell lines
ASSAY INFO: HLA class II peptide binding, inhibition of radiolabeled peptide binding to purified MHC
PROTOCOL CONDITIONS: citrullinated 15-mer (X); purified MHC, inhibition of radiolabeled peptide binding; dash = IC50 >40,000 nM; read-out: DRB1*01:01 binding capacity, Cit peptide (IC50 nM)
Square brackets hold non-standard residues; d marks the D form. Peptide text beside a SMILES is read from it. Cit = NC(=O)NCCC[C@H](N)C(=O)O
Kindly state IC50 for each of the entries shown.
Please respond with the number in nM and leave the unit unwritten.

Give the measured IC50 for CC(C)C[C@H](NC(=O)[C@H](CC(=O)O)NC(=O)[C@H](C)NC(=O)[C@H](Cc1ccccc1)NC(=O)[C@H](CCCCN)NC(=O)[C@H](CO)NC(=O)[C@H](CCCCN)NC(=O)[C@@H](N)Cc1ccc(O)cc1)C(=O)N[C@@H](CO)C(=O)N[C@@H](CCC(=O)O)C(=O)N[C@@H](C)C(=O)N[C@@H](C)C(=O)N[C@@H](CC(N)=O)C(=O)N[C@@H](CCCNC(N)=O)C(=O)N[C@@H](CC(N)=O)C(=O)O [YKSKFADLSEAANXN] (H-YKSKFADLSEAAN[Cit]N-OH)
292

Look up and state reported IC50 for CC(C)C[C@H](NC(=O)[C@H](CCC(N)=O)NC(=O)[C@H](CC(=O)O)NC(=O)[C@@H](N)C(C)C)C(=O)N[C@H](C(=O)N[C@@H](CC(N)=O)C(=O)N[C@@H](CC(=O)O)C(=O)N[C@@H](CCCCN)C(=O)N[C@@H](C)C(=O)N[C@@H](CCCNC(N)=O)C(=O)N[C@H](C(=O)N[C@@H](CCC(=O)O)C(=O)N[C@H](C(=O)N[C@@H](CCC(=O)O)C(=O)N[C@@H](CCCNC(=N)N)C(=O)O)C(C)C)C(C)C)[C@@H](C)O [VDQLTNDKAXVEVER] (H-VDQLTNDKA[Cit]VEVER-OH)
20400

Name the recorded IC50 of the item CSCC[C@H](NC(=O)[C@H](CCCNC(=N)N)NC(=O)[C@H](CCCNC(N)=O)NC(=O)[C@H](Cc1ccc(O)cc1)NC(=O)[C@H](CO)NC(=O)[C@H](CO)NC(=O)[C@H](CO)NC(=O)[C@H](CO)NC(=O)[C@@H](N)C(C)C)C(=O)N[C@@H](Cc1ccccc1)C(=O)NCC(=O)NCC(=O)N1CCC[C@H]1C(=O)NCC(=O)N[C@H](C(=O)O)[C@@H](C)O [VSSSSYXRMFGGPGT] (H-VSSSSY[Cit]RMFGGPGT-OH) in your answer.
37
